Each recorded value in this set is attributed to paper PMC314469.

tested on: Myo5 SH3 domain; assay: SPOT analysis of cellulose-bound peptides (WISE), Myo5 SH3 domain (Dataset S4); type: binding, Saccharomyces cerevisiae; settings: SPOT analysis of membrane-synthesized peptides probed with Myo5 SH3 domain; normalized value
Parameter The normalized value in BLU units (SPOT analysis, Myo5 SH3): see the listing below.
measurement_kind: The normalized value in BLU units (SPOT analysis, Myo5 SH3)

INSERT INTO results (input_sequence, target_or_test_system, reported_measurement) VALUES
  ('HEREKALPPIPFTT', 'Myo5 SH3 domain', '214.6 BLU'),
  ('TSGYKYFPQFPQLK', 'Myo5 SH3 domain', '234.6 BLU'),
  ('APVVKSEPSLPRMR', 'Myo5 SH3 domain', '241.2 BLU'),
  ('YVNPRNLPSVPNGL', 'Myo5 SH3 domain', '179.8 BLU'),
  ('DKIFKTDPNEPAND', 'Myo5 SH3 domain', '99.1 BLU'),
  ('TLDEKNLPRLPTPF', 'Myo5 SH3 domain', '205.2 BLU'),
  ('TKTDKSYPMCPVDA', 'Myo5 SH3 domain', '150.0 BLU'),
  ('ALEERFDPKSPTKR', 'Myo5 SH3 domain', '108.5 BLU'),
  ('TARNKKSPGGPRQR', 'Myo5 SH3 domain', '593.2 BLU'),
  ('WENFKEEPGEPLSR', 'Myo5 SH3 domain', '96.8 BLU'),
  ('YILPKTDPRSPYYI', 'Myo5 SH3 domain', '188.5 BLU'),
  ('TTNSRLCPSSPSSS', 'Myo5 SH3 domain', '160.8 BLU'),
  ('HTIPKSGPIVPYVL', 'Myo5 SH3 domain', '163.7 BLU'),
  ('DQLNRLLPNLPEEE', 'Myo5 SH3 domain', '47.5 BLU'),
  ('GTVTKTAPSFPQSS', 'Myo5 SH3 domain', '261.1 BLU'),
  ('NLSLRYAPNLPPVI', 'Myo5 SH3 domain', '778.6 BLU'),
  ('INTFKTLPTKPEMQ', 'Myo5 SH3 domain', '167.1 BLU'),
  ('SFVTKYLPAAPVGS', 'Myo5 SH3 domain', '214.9 BLU'),
  ('YVYGRQDPKKPFFT', 'Myo5 SH3 domain', '345.2 BLU'),
  ('QIVNKPLPPLPVAG', 'Myo5 SH3 domain', '248.9 BLU'),
  ('LIDFKDYPDVPKVP', 'Myo5 SH3 domain', '153.6 BLU'),
  ('VYRRKCIPFAPHQI', 'Myo5 SH3 domain', '382.9 BLU'),
  ('FHPEKLTPYTPMTG', 'Myo5 SH3 domain', '96.5 BLU'),
  ('TDLFKPLPEPPTEL', 'Myo5 SH3 domain', '23.4 BLU'),
  ('AVGGKWEPGNPIAI', 'Myo5 SH3 domain', '78.4 BLU'),
  ('LASDKGLPMIPAFV', 'Myo5 SH3 domain', '79.9 BLU'),
  ('SKIPKSIPIIPYVL', 'Myo5 SH3 domain', '243.1 BLU'),
  ('IAGQRTFPEDPNYP', 'Myo5 SH3 domain', '171.7 BLU'),
  ('PKCEKIEPLSPSFK', 'Myo5 SH3 domain', '116.4 BLU'),
  ('SNFKKRDPGLPDFQ', 'Myo5 SH3 domain', '160.6 BLU'),
  ('YVNAKLDPSLPSQY', 'Myo5 SH3 domain', '97.1 BLU'),
  ('NTINKSNPQGPSDN', 'Myo5 SH3 domain', '76.2 BLU'),
  ('EEEAKSVPPIPADQ', 'Myo5 SH3 domain', '29.4 BLU'),
  ('AKDYRFNPAIPLRI', 'Myo5 SH3 domain', '304.4 BLU'),
  ('GDHPKGPPPPPPPP', 'Myo5 SH3 domain', '20184.2 BLU'),
  ('IESLREIPYGPDFD', 'Myo5 SH3 domain', '115.6 BLU'),
  ('GQIDRDKPSEPERT', 'Myo5 SH3 domain', '100.5 BLU'),
  ('GRHLKNIPRIPIFC', 'Myo5 SH3 domain', '1042.1 BLU'),
  ('PIVKKNVPKPPPLV', 'Myo5 SH3 domain', '153.6 BLU');
